# System: OVCAR-8 ovarian
# protocol.summary: NCI-60 one-dose screen, 48 h (100 = growth as untreated, 0 = no growth, -100 = all killed)
# condition.set: 10 µM unless noted
Compounds without any hit were thinned out: in the full panel of roughly 83,000, 20% have a hit.

# compound, growth / %
data = [
    ("CC(=O)Nc1cccc(Nc2nc(N[C@H]3CCCc4ccccc43)c3ccccc3n2)c1", 103),
    ("CCCCSc1nc(Nc2ccc(S(N)(=O)=O)cc2)c(C#N)c(-c2cc(OC)c(OC)c(OC)c2)n1", 31.5),
    ("COc1ccc(C(=O)/C=C/c2cccc3ccccc23)cc1S(N)(=O)=O", -13.6),
    ("CCOC(=O)C1=C(N)N(c2ccccc2)C2=C(C(=O)CC(C)(C)C2)C1c1ccccc1Cl (configuration not stated)", 83.6),
    ("O=C(CN1C(=O)/C(=C/c2ccccc2Cl)SC1=S)N1CCOCC1", 97.1),
    ("C#CCOc1cc(N(CC)CC)ccc1C(C(=O)NC(C)(C)C)N(C(=O)C1CCc2cc(F)ccc2O1)c1ccc(Br)cc1 (configuration not stated)", 89.3),
    ("CC12CC[C@@H]3[C@]4(C)COC(c5cn[nH]c5-c5ccc(Cl)cc5)O[C@@H]4CC[C@@]3(C)[C@@H]1CC(C1=CCOC1=O)O2 (some centres not stated)", 55.5),
    ("COc1cc(/C=C/C(=O)c2ccc(C)cc2)ccc1Oc1nc(Nc2ccc(F)cc2)nc(N(C)C)n1", 38),
    ("O=C(O)c1cccc(-c2ccc(/C=N/NC(=O)c3[nH]c4ccc(Br)cc4c3-c3ccccc3)s2)c1", 44.9),
    ("CC(=O)Oc1ccc(/C=C/C(=O)N[C@@H](Cc2ccccc2)C(O)C(=O)NCc2ccccc2)cc1OC(C)=O (some centres not stated)", 75.9),
    ("CC1(C)CC[C@]2(C(=O)O)CC[C@]3(C)C(=CCC4[C@@]5(C)C[C@@H](O)[C@@H]6OC(c7cccc(Br)c7)OC[C@@]6(C)C5CC[C@]43C)C2C1 (some centres not stated)", 40),
    ("COc1cc(CNC(=O)/C=C/c2ccc3c(c2)OCO3)ccc1OCc1cn(-c2ccc([N+](=O)[O-])cc2)nn1", 90.5),
    ("COc1c(F)ccc(C(=O)Nc2ccc3nc(NC(=O)C4CCCN(S(=O)(=O)c5ccc(Br)c(F)c5)C4)sc3c2)c1F (configuration not stated)", 98.1),
    ("O=C(C1=CNC(=S)NC1c1ccc(O)cc1)c1cc2ccccc2oc1=O (configuration not stated)", 100),
    ("C#CCOc1ccc(/C=N/Nc2nc(-c3cc4cc(OC)ccc4oc3=O)cs2)cc1OC", 50.8),
    ("CC1=C(C#N)C2=NNCC(c3ccccc3)=NN2C(c2ccccc2)=C1", 111),
    ("COc1cc2c(c(OC)c1OC)C(=O)CC(c1cccc(NC(=O)c3cc(NC(=O)[C@H](C)N)ccc3Cl)c1)O2 (some centres not stated)", 9.03),
]

----------
# Test system: 786-0 renal
# protocol.summary: NCI-60 one-dose screen, 48 h (100 = growth as untreated, 0 = no growth, -100 = all killed)
# condition.set: 10 µM unless noted
The panel holds about 83,000 compounds, 20% with a hit somewhere; the sample as a whole holds those more often. Activity calls are given as the source filed them. The calls were made as follows: active = growth percent below 10; inactive = the rest.
Each entry below carries its reported growth.

# compound, growth
records = [
    ("C#CCOc1ccc(/C=N/Nc2nc(-c3ccc(F)cc3)cs2)cc1OC", "84.4% (inactive)"),
    ("CC(C)(C)OC(=O)/C=C/c1cccc2c1C(=O)NC(C)(c1cc3cc(Cl)ccc3oc1=O)N2 (centres undefined)", "54.5% (inactive)"),
    ("CC1(C)CC[C@]2(C(=O)Nc3ccc(F)cc3)CC[C@]3(C)C(=CCC4[C@@]5(C)C[C@@H](O)[C@H](O)[C@@](C)(CO)C5CC[C@]43C)C2C1 (some centres undefined)", "51.1% (inactive)"),
    ("O=C(Cn1c(/C=C/c2cccc([N+](=O)[O-])c2)nc2ccccc2c1=O)Nc1ccccc1", "59.6% (inactive)"),
    ("CC(=O)N1CCN(Cc2ccc3c(NNC(=O)c4cnccn4)nc4cc(F)ccc4n23)CC1", "0.0554% (active)"),
    ("Nc1cc2ccccc2c(=O)n1NC(=O)c1ccc(I)cc1", "99.3% (inactive)"),
    ("Cc1ccc(C2CC(c3ccc(S(=O)(=O)NCCNc4nc(Nc5ccc(F)cc5)nc(N(C)C)n4)cc3)=Nc3c(N)nc(N)nc3N2)cc1 (centres undefined)", "42% (inactive)"),
    ("CCCSc1nc(NCCc2c[nH]c3ccccc23)c(C#N)c(-c2ccc(F)cc2)n1", "62.4% (inactive)"),
    ("CN1C(=O)/C(=C/c2ccc(C(=O)Nc3ncc(Cc4ccc(Cl)cc4Cl)s3)cc2)SC1=S", "53.3% (inactive)"),
]

Data provenance is PubChem BioAssay (NCI).
